What Ki was measured for each of the following?
- SUBJECT OF TEST: recombinant human kappa (KOR) opioid receptor (Homo sapiens, UniProt P41145)
- Sequence (P41145 whole entry): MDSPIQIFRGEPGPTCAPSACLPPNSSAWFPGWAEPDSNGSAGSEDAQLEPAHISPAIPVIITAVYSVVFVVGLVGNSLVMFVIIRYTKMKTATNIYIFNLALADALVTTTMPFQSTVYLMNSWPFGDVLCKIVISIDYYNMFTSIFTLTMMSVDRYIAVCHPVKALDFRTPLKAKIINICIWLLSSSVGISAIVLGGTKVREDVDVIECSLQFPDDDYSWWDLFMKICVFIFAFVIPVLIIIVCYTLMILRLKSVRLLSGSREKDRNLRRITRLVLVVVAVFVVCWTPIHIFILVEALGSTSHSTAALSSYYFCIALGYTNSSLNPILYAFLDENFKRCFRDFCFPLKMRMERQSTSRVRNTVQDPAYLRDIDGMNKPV
- ASSAY NAME: biochemical
// return the numeric value with its unit appended

CN(C(=O)Cc1ccc(Cl)c(Cl)c1)[C@H](CN1CCCC1)c1ccc(OCCO)cc1.Cl [compound 36]; 0.1 nM

Hey, quick one: what's Ki for each of these?
1. COCCOCCOCCOCCOCCNC(=O)Nc1cccc([C@@H](CN2CCCC2)N(C)C(=O)C(c2ccc(Cl)cc2)c2ccc(Cl)cc2)c1 [compound 16]
2. CN(C(=O)Cc1ccc(Cl)c(Cl)c1)[C@H](CN1CC[C@H](OCCO)C1)c1ccccc1 [compound 25]
3. COCCOCC(=O)Nc1cccc([C@@H](CN2CC[C@H](O)C2)N(C)C(=O)C(c2ccccc2)c2ccccc2)c1 [compound 11]
4. COCCOCCOCCOCCOCCOCCOCCOC(=O)N[C@H](C(=O)Nc1cccc([C@@H](CN2CC[C@H](O)C2)N(C)C(=O)Cc2ccc(Cl)c(Cl)c2)c1)C(C)C [compound 48]
5. CN(C(=O)Cc1ccc(Cl)c(Cl)c1)[C@H](CN1CC[C@H](OCC(=O)O)C1)c1ccccc1 [compound 24]
6. CN(C(=O)Cc1ccc(Cl)c(Cl)c1)[C@H](CN1CCCC1)c1cccc(NS(C)(=O)=O)c1 [compound 14]

Result:
1: 14.5 nM; 2: 4.15 nM; 3: 13.4 nM; 4: 0.8 nM; 5: 468 nM; 6: 0.08 nM

Recorded values, source patent US11111214B2.
